- System: 485176-168-R4-J1-PDC complex spheroid growth
- protocol: Anticancer human tumor 485176-168-R4-J1-PDC patient-derived pancreatic adenocarcinoma cell line growth inhibition [RAS]
- condition summary: second compound 0.01 µM; first compound 1 µM; stronger effect = lower value
measured attribute: viability, T/C

[Q] # lookup: viability, T/C of CC1(O)CCCC1n1c(=O)c(C(F)F)cc2cnc(NC3CCN(S(C)(=O)=O)CC3)nc21 (stereo not given) + C=CC(=O)N1CCN(c2nc(OCC3CCCN3C)nc3c(F)c(-c4nc(N)cc(C)c4C(F)(F)F)c(Cl)cc23)C(C)C1
[A] 67.7%

[Q] Now try CC(Nc1ccc2c(c1)OCCn1cc(N3C(=O)OCC3C(F)F)nc1-2)C(N)=O (stereo not given) + C=CC(=O)N1CCN(c2nc(OCC3CCCN3C)nc3c(F)c(-c4nc(N)cc(C)c4C(F)(F)F)c(Cl)cc23)C(C)C1 .
[A] 73.6%

[Q] Now try O=C(c1ccc(F)c(F)c1Nc1ccc(I)cc1F)N1CC(O)([C@@H]2CCCCN2)C1 + C=CC(=O)N1CCN(c2nc(OCC3CCCN3C)nc3c(F)c(-c4nc(N)cc(C)c4C(F)(F)F)c(Cl)cc23)C(C)C1 .
[A] 30.9%

[Q] Now try CC(C)NCC(C(=O)N1CCN(c2ncnc3c2C(C)CC3O)CC1)c1ccc(Cl)cc1 (stereo not given) + C=CC(=O)N1CCN(c2nc(OCC3CCCN3C)nc3c(F)c(-c4nc(N)cc(C)c4C(F)(F)F)c(Cl)cc23)C(C)C1 .
[A] 62.4%

[Q] Now try C[C@@H](NC(=O)c1ncnc(N)c1Cl)c1ncc(C(=O)Nc2cc(C(F)(F)F)c(Cl)cn2)s1 + C=CC(=O)N1CCN(c2nc(OCC3CCCN3C)nc3c(F)c(-c4nc(N)cc(C)c4C(F)(F)F)c(Cl)cc23)C(C)C1 .
[A] 75.8%

* * *

For each record, write down the corresponding viability, T/C.
- System: 485176-168-R4-J1-PDC complex spheroid growth
- protocol: Anticancer human tumor 485176-168-R4-J1-PDC cell line growth inhibition [RAS];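 also: spheroids exposed to compounds for seven days before readout; luminescence viability expressed relative to DMSO vehicle wells set as 100%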
- condition summary: second compound 0.03 µM; first compound 0.316 µM; stronger effect = lower value
Number in %, nothing else.

[Q] # lookup: viability, T/C of C=CC(=O)N1CCN(c2nc(OCC3CCCN3C)nc3c(F)c(-c4nc(N)cc(C)c4C(F)(F)F)c(Cl)cc23)C(C)C1 (stereo not drawn) + CCn1c(-c2cc(N3CCN(C)CC3)cnc2C(C)OC)c2c3cc(ccc31)-c1csc(n1)CC(NC(=O)C1CC1C)C(=O)N1CCCC(N1)C(=O)OCC(C)(C)C2
[A] 87.6

[Q] Now try CCN1CCN(Cc2ccc(Nc3ncc(F)c(-c4cc(F)c5nc(C)n(C(C)C)c5c4)n3)nc2)CC1 + CCn1c(-c2cc(N3CCN(C)CC3)cnc2C(C)OC)c2c3cc(ccc31)-c1csc(n1)CC(NC(=O)C1CC1C)C(=O)N1CCCC(N1)C(=O)OCC(C)(C)C2 .
[A] 63.8

[Q] Now try CC(C)NCC(C(=O)N1CCN(c2ncnc3c2C(C)CC3O)CC1)c1ccc(Cl)cc1 (stereo not drawn) + CCn1c(-c2cccnc2C(C)OC)c2c3cc(ccc31)N1CCOC(CC(NC(=O)C(C(C)C)N(C)C(=O)C3(F)CCN(C(=O)C#CC(C)(C)N(C)C)CC3)C(=O)N3CCCC(N3)C(=O)OCC(C)(C)C2)C1 .
[A] 74.1

Reference source: PubChem BioAssay AID2060906
